The measured values listed here are drawn from ChEMBL document CHEMBL3112557.

- assayedSystem: Fatty-acid amide hydrolase 1 (Rattus norvegicus, UniProt P97612)
- Sequence (P97612 whole entry): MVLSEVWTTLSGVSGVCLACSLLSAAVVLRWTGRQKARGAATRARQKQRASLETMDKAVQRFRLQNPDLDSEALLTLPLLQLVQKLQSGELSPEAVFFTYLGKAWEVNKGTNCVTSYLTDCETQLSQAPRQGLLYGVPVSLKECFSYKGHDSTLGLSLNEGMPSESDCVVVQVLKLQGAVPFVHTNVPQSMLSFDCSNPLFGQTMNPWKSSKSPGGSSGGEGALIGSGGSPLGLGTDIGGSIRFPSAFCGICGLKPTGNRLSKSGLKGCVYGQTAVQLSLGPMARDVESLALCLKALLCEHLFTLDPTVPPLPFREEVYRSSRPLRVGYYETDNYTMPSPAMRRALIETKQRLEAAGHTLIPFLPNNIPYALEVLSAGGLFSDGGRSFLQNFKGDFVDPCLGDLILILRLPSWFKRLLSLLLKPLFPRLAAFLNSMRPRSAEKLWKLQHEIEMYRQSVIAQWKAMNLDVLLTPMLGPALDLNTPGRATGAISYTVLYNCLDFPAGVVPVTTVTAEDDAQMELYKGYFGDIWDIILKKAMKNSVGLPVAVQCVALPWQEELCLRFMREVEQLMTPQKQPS
In this section, each of the molecules is paired with its reported pIC50.
// pIC50 here means minus log10 of the molar concentration (mol/L)

O=C(Nc1cccc2nonc12)N1CC2(CCN(Cc3cccc(Oc4ccc(Cl)cc4)c3)CC2)C1 6.09
O=C(Nc1ccc(-n2nccn2)nc1)N1CC2(CCN(Cc3cccc(Oc4ccc(Cl)cc4)c3)CC2)C1 7.52
O=C(Nc1cc[nH]n1)N1CC2(CCN(Cc3cccc(Oc4ccc(Cl)cc4)c3)CC2)C1 5.77
O=C(Nc1noc2ccccc12)N1CC2(CCN(Cc3cccc(Oc4ccc(Cl)cc4)c3)CC2)C1 7.66
O=C(Nc1noc2ccccc12)N1CCC2(CC1)CN(Cc1cccc(Oc3ccc(Cl)cc3)c1)C2 8.28
N#Cc1ccncc1NC(=O)N1CC2(CCN(Cc3cccc(Oc4ccc(Cl)cc4)c3)CC2)C1 7.80

Task: I am curious: what pIC50 value has been reported for Cc1ccncc1NC(=O)N1CC2(CCN(Cc3cccc(Oc4ccc(Cl)cc4)c3)CC2)C1 ?
Output: 7.09

Task: I am curious: what pIC50 value has been reported for O=C(Nc1cnc2cccnn12)N1CC2(CCN(Cc3cccc(Oc4ccc(Cl)cc4)c3)CC2)C1 ?
Output: 7.96

Task: I am curious: what pIC50 value has been reported for O=C(Nc1cccnc1)N1CC2(CCN(Cc3cccc(Oc4ccc(Cl)cc4)c3)CC2)C1 ?
Output: 6.83

Task: I am curious: what pIC50 value has been reported for O=C(Nc1cccnc1)N1CCC2(CC1)CN(Cc1cccc(Oc3ccc(Cl)cc3)c1)C2 ?
Output: 6.61
